The measured values listed here are drawn from patent US20090035317A1.

Each entry below carries its recorded pKd.
# System: T1, vascular endothelial growth factor (VEGF) (UniProt P15692-4 27-191, limits assumed, biotinylated)
# T1 construct: Soluble biotinylated VEGF used to label cells that display the peptides; also called biotinylated VEGF
# T1 sequence (P15692 other isoform, or with tags, fused parts or gaps limits assumed): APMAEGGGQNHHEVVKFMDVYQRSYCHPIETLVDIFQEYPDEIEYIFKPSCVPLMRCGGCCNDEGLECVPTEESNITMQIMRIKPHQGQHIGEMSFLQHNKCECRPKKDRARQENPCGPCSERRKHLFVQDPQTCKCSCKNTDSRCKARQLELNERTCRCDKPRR
# Test: apparent equilibrium KD measured from the bacterial cell surface, flow cytometry
pKd: −log10 of the molar value. Bridge positions count the residues as written; N and C are the ends. Ends that are not written are not given here.
Property name: pKd

>>> result_number("SYVLKEWSVPSWGKPGGGSGGGNFGYGKWEWDYGKWLEKV (Displayed on the E. coli surface as a fusion to CPXopt; the letters do not carry the scaffold., Peptide 2 is printed without the final G of L2.F4.04; not shown: CPXopt bacterial display scaffold that carried the peptide on the cell surface) [L3.F6.01]")
8.46
>>> result_number("NFGYGKWEWDYGKWLEKVG (not shown: CPXopt bacterial display scaffold (carrier)) [L2.F4.04]")
8.21
>>> result_number("VTSRYEMREDGSWKKGGGSGGGNFGYGKWEWDYGKWLEKVG (not shown: CPXopt bacterial display scaffold (carrier)) [L3.F5A.02]")
8.59
>>> result_number("SSKCGRWGETPCLAEGGGSGGGNFGYGKWEWDYGKWLEKVG (also called bidentate peptide L3.F5A.01; not shown: CPXopt bacterial display scaffold (carrier)) [L3.F5A.01]")
8.68
>>> result_number("AKRSSYSMWGAMPGGGSGGGNFGYGKWEWDYGKWLEKV (Displayed on the E. coli surface as a fusion to CPXopt; the letters do not carry the scaffold., Peptide 2 is printed without the final G of L2.F4.04; not shown: CPXopt bacterial display scaffold that carried the peptide on the cell surface) [L3.F5A.03]")
8.43
>>> result_number("SKLKTLLWQQGGGSGGGNFGYGKWEWDYGKWLEKV (Displayed on the E. coli surface as a fusion to CPXopt; the letters do not carry the scaffold., Peptide 2 is printed without the final G of L2.F4.04; not shown: CPXopt bacterial display scaffold that carried the peptide on the cell surface) [L3.F6.02]")
8.30
>>> result_number("CPVQTMWDWECMRAFIEG (disulfide 1-11 (inferred), not shown: CPXopt bacterial display scaffold (carrier)) [L2.F3B.08]")
7.75
